Quick reference for inhibition at 10 µM among some molecules
# Tested on: chronic myeloid leukemia cell line K562
# Protocol description: Cancer cell proliferation inhibitory activity evaluation 1 (CCK-8), K562
# Type: cell-based
# Applied conditions: Homo sapiens, K562, 72 h, read-out: Cancer cell proliferation inhibitory activity K562

Previously resolved entries follow.
Mol smiles: CCS(=O)(=O)N1CC[C@H](Nc2c(Br)cnc3[nH]c(-c4cc(C)n(-c5cccc(N6CCOCC6)c5)c4C)nc23)C1
inhibition at 10 µM: > 50%
//
Mol smiles: CCS(=O)(=O)N1CC[C@H](Nc2c(Br)cnc3[nH]c(-c4cc(C)n(-c5ccc(Cl)c(Cl)c5)c4C)nc23)C1
inhibition at 10 µM: 10 to 50%
//
Mol smiles: CCS(=O)(=O)N1CC[C@H](Nc2c(Br)cnc3[nH]c(-c4cc(C)n(-c5c(Cl)cccc5Cl)c4C)nc23)C1
inhibition at 10 µM: 10 to 50%

Now examine the next entry.
Enquiry: Form field: reported inhibition at 10 µM of `CCS(=O)(=O)N1CC[C@H](Nc2c(Br)cnc3[nH]c(-c4cc(C)n(-c5cc(NS(C)(=O)=O)ccc5C)c4C)nc23)C1`
Return: > 50%
